Molecular target: UniProt O00329
Experiment: Inhibition of PI3Kδ efficacy assay (ADP-Glo kinase assay)
Type: biochemical
Settings: Table 3; read-out: PI3Kδ inhibitory activity (IC50)
Listed next: entries and their corresponding pIC50.
Scale for pIC50: -log10 of concentration given in mol/L; no unit attached.

Example cases with answers are listed next.
>>> measured_number("COc1ncc(-c2ccc3ncnc(N4CCN(C(=O)/C=C/C(C)=O)CC4)c3n2)cc1NS(=O)(=O)c1ccccc1F [Example 133]")
7.69
>>> measured_number("COc1ncc(-c2ccc3ncnc(N4CCN(C(=O)/C=C/C(C)=O)CC4)c3n2)cc1NS(=O)(=O)c1c(F)cccc1F [Example 131]")
7.86
>>> measured_number("COc1ncc(-c2ccc3ncnc(N4CCN(C(=O)/C=C/C(C)=O)CC4)c3n2)cc1NS(=O)(=O)c1ccc(F)cc1F [Example 132]")
7.53

Provide only the value of recorded pIC50 for CCOc1c([C@H](C)n2nc(C)c3c(N)ncnc32)cc(Cl)c(F)c1[C@@H]1CNC(=O)C1 [Parsaclisib, reference compound]
8.22

###

Biological target: PI3Kα (Homo sapiens (Human), UniProt P42336)
Sequence (P42336 whole entry): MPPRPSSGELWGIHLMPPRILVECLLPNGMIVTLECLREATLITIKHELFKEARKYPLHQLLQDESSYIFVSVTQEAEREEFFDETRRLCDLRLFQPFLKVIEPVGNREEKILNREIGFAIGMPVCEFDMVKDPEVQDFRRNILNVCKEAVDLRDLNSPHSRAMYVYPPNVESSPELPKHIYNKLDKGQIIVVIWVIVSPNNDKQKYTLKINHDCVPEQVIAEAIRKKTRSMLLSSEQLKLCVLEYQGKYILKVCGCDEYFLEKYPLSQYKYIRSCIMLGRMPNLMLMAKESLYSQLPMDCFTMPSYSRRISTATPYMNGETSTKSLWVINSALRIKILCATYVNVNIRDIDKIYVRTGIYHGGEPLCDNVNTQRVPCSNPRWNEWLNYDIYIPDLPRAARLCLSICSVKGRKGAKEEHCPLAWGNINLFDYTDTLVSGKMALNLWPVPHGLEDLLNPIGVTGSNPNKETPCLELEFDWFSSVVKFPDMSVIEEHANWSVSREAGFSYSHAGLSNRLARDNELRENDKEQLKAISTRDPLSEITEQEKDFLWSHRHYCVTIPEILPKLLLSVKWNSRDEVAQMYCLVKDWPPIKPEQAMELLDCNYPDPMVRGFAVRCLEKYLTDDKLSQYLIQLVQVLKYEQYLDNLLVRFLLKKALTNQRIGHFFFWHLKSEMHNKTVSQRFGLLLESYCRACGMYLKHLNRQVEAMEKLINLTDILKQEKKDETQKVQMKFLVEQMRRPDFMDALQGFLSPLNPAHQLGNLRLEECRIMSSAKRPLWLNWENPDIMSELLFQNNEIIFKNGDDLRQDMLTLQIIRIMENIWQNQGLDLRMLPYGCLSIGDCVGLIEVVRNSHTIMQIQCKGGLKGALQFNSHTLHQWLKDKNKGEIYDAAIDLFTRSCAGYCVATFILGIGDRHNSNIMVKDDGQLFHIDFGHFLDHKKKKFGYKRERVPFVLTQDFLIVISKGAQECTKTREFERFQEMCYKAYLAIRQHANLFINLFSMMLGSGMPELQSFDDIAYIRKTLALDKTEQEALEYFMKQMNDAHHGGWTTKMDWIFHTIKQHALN
Sequence (P27986 whole entry partner): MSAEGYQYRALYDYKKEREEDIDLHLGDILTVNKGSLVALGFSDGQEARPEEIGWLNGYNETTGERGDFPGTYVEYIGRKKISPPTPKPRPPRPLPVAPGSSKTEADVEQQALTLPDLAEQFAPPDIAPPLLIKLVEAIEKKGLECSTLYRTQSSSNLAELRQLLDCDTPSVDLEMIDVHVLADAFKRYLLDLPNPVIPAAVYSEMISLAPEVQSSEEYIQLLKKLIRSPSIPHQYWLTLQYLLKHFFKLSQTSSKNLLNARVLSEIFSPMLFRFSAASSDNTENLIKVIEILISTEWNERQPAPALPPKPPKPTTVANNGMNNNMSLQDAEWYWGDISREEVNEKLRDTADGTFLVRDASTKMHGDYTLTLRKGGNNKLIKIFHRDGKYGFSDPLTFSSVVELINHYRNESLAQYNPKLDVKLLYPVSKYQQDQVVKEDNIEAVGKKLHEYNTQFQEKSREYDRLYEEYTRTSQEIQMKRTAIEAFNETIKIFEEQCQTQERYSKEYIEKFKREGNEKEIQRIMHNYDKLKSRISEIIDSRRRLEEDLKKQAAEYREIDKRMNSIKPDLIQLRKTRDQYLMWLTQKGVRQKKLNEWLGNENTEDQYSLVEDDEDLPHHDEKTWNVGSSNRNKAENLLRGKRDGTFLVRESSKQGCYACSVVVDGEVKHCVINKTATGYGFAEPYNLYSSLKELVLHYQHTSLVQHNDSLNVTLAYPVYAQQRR
Assay: Inhibition of PI3Kα efficacy assay (ADP-Glo kinase assay)
Assay type: biochemical
Conditions: Table 1; read-out: PI3Kα inhibitory activity (IC50)
Method: Inhibition of PI3Kα Efficacy assay The ADP-Glo™ kinase assay was used to assess the inhibition of PI3Kα with our compounds. The utilized proteins and assay reagents were obtained from the ADP-Glo™ Kinase Assay Kit (Promega). […] Data were analyzed using GraphPad Prism with log(inhibitor) vs. response—Variable Slope(four parameters) fitting calculations for IC5 values. […]
pIC50: −log10 of the molar value.
Mark Y for reported pIC50 of 8 or greater; mark N for anything smaller.

>>> class_name("C=C(F)C(=O)N1CC2(CCN(c3ncnc4ccc(-c5cnc(OC)c(NS(=O)(=O)c6ccc(F)cc6F)c5)cc34)CC2)C1")
"Y"
>>> class_name("C=CC(=O)N1CCN(c2ncnc3ccc(-c4cncc(NS(=O)(=O)c5ccc(F)cc5F)c4)cc23)CC1")
"Y"
>>> class_name("CC(=O)/C=C/C(=O)N1CCN(c2ncnc3ccc(-c4cnc(Cl)c(NS(=O)(=O)c5ccc(Cl)s5)c4)cc23)CC1")
"N"

Textbook exercise: given the entry CC(=O)/C=C/C(=O)N1CCN(c2ncnc3ccc(-c4cnc(Cl)c(NS(=O)(=O)c5ccc(F)cc5F)c4)cc23)CC1 , state whether its pIC50 is greater than or equal to 8.
Y

Quick check, pIC50 >= 8? COc1ncc(-c2ccc3ncnc(N4CCN(C(=O)/C=C/CF)CC4)c3c2)cc1NS(=O)(=O)c1ccc(F)cc1F
Y

###

Molecular target: PI3Kδ (Homo sapiens (Human), UniProt O00329)
Sequence (O00329 whole entry): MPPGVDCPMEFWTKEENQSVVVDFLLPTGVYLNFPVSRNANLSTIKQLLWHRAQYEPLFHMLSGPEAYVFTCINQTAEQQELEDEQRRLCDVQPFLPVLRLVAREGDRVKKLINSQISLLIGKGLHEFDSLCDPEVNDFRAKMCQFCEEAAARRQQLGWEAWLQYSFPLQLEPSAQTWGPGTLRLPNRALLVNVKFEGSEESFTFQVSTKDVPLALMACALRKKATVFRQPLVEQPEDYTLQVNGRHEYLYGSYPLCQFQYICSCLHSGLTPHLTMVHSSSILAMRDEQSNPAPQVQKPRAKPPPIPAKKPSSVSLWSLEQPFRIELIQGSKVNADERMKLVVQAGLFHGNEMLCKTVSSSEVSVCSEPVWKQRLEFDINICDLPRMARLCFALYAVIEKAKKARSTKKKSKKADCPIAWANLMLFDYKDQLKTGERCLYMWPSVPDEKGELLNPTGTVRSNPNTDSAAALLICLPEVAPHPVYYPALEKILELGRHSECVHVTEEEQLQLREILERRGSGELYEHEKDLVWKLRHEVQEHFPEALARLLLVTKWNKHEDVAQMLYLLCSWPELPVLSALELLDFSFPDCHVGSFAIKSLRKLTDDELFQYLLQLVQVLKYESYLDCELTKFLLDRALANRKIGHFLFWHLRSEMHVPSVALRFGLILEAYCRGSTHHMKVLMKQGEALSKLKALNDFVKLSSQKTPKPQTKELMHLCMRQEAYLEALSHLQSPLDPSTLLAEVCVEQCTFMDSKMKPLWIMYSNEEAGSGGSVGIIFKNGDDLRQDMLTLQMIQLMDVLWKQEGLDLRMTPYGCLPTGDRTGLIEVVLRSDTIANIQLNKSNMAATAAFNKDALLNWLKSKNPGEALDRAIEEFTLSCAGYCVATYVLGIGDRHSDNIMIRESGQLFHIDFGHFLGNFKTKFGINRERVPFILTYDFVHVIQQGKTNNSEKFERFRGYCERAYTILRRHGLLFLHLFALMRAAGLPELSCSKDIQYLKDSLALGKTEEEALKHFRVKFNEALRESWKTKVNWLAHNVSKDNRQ
Sequence (P27986 whole entry partner): as the sequence (P27986 whole entry partner) above
Assay: Inhibition of PI3Kδ efficacy assay (ADP-Glo kinase assay)
Format: biochemical
Conditions: Table 2; read-out: PI3Kδ inhibitory activity (IC50)
readout-name: pIC50
// field semantics: pIC50 = negative decimal log of concentration (mol/L)

>>> measured_number("C=C1CCN(C2CN(c3ncnc4ccc(-c5cnc(OC)c(NS(=O)(=O)c6ccc(F)cc6F)c5)cc34)C2)C1=O")
7.77

Item C=CC(=O)N1CCN(c2ncnc3ccc(-c4cnc(OC)c(NS(=O)(=O)c5ccc(F)cn5)c4)cc23)CC1 : provide pIC50
7.93

State its pIC50: COc1ncc(-c2ccc3ncnc(N4C[C@@H](C)N(C(=O)/C=C/C(C)=O)C[C@@H]4C)c3c2)cc1NS(=O)(=O)c1c(F)cccc1F
7.72

Dear colleague, please send me the reported pIC50 for COc1ncc(-c2ccc3ncnc(N4CCN(C(=O)/C=C/C(C)=O)CC4)c3c2)cc1NS(=O)(=O)c1ccc(F)cn1 when you can.
7.71

###

As shown below, each of these compounds has a reported log10 of IC50 value.
Biological target: PI3Kα (Homo sapiens (Human), UniProt P42336)
Assay: Inhibition of PI3Kα efficacy assay (ADP-Glo kinase assay)
Type: biochemical
Conditions: Table 2; read-out: PI3Kα inhibitory activity (IC50)
Recall that a logarithmic scale is used here: each number is log10 of IC50 in nM.

>>> measured_number("COc1ncc(-c2ccc3ncnc(N4CCN(C(=O)/C(F)=C/C(C)=O)CC4)c3c2)cc1NS(=O)(=O)c1ccc(F)cc1F [Example 77]")
0.59
>>> measured_number("C=C(F)C(=O)N1CCN(c2ncnc3ccc(-c4cnc(Cl)c(NS(=O)(=O)c5c(F)cccc5F)c4)cc23)CC1 [Example 85]")
0.45

Supply log10 of IC50 value. Item: COc1ncc(-c2ccc3ncnc(N4CCC5(CN(C(=O)/C=C/n6ccnn6)C5)C4)c3c2)cc1NS(=O)(=O)c1ccc(F)cc1F [Example 61]
0.72

Look up and report measured log10 of IC50 for this entry: COc1ncc(-c2ccc3ncnc(N4CCN(C(=O)C5=CC(=O)CCC5)CC4)c3c2)cc1NS(=O)(=O)c1ccc(Cl)s1 [Example 73]
0.40

Quick one: give measured log10 of IC50 for COC/C=C/C(=O)N1CCN(c2ncnc3ccc(-c4cnc(OC)c(NS(=O)(=O)c5ccc(F)cc5F)c4)cc23)CC1 [Example 64]
1.22

Identify log10 of IC50 associated with the compound COc1ncc(-c2ccc3ncnc(N4CCN(C(=O)/C=C/C(C)=O)CC4)c3c2)cc1NS(=O)(=O)c1c(F)cc(F)cc1F [Example 99]
0.78

Kindly indicate its recorded log10 of IC50. Item: C=C(F)C(=O)N1CC(N2CCN(c3ncnc4ccc(-c5cnc(OC)c(NS(=O)(=O)c6ccc(F)cc6F)c5)cc34)CC2)C1 [Example 57]
0.28

###

Molecular target: PI3Kδ (Homo sapiens (Human))
Assay: Inhibition of PI3Kδ efficacy assay (ADP-Glo kinase assay)
Assay type: biochemical
Details: Table 2; read-out: PI3Kδ inhibitory activity (IC50)
readout-name: pIC50
Would you please state pIC50, meaning minus log10 of the concentration in mol/L, as a bare number?

>>> measured_number("C=CC(=O)N1CCN(c2ncnc3ccc(-c4cnc(OC)c(NCc5ccc(F)cc5F)c4)cc23)CC1 [Example 126]")
7.28
>>> measured_number("C=C(F)C(=O)N1CCN(c2ncnc3ccc(-c4cnc(OC)c(NS(=O)(=O)c5c(F)cccc5F)c4)cc23)CC1 [Example 43]")
7.89
>>> measured_number("C=CC(=O)N1CCN(c2ncnc3ccc(-c4cnc(OC)c(NS(=O)(=O)c5ccc(F)cc5F)c4)cc23)C[C@@H]1CC#N [Example 114]")
7.55

Give reported pIC50 value for COc1ncc(-c2ccc3ncnc(N4CCC5(CC4)CN(C(=O)/C=C/C(C)=O)C5)c3c2)cc1NS(=O)(=O)c1c(F)cccc1F [Example 49]
7.83

Return pIC50 (reported value) for this molecule: COc1ncc(-c2ccc3ncnc(N4CCN(C(=O)/C=C/P(C)(C)=O)CC4)c3c2)cc1NS(=O)(=O)c1ccc(F)cc1F [Example 76]
7.60

For the molecule CCc1ncc(-c2ccc3ncnc(N4CCN(C(=O)/C=C/C(C)=O)CC4)c3c2)cc1NS(=O)(=O)c1ccc(F)cc1F [Example 83] , give its measured pIC50 value.
7.75

Let me know recorded pIC50 for COc1ncc(-c2ccc3ncnc(N4CCN(C(=O)C5OC5C(C)=O)CC4)c3c2)cc1NS(=O)(=O)c1ccc(F)cc1F (centres unmarked) [Example 127] , thanks.
7.50

For the molecule COc1ncc(-c2ccc3ncnc(N4CCC5(CC=CC5=O)CC4)c3c2)cc1NS(=O)(=O)c1ccc(F)cc1F [Example 70] , give its measured pIC50 value.
7.46

Give recorded pIC50. C=C(F)C(=O)N1CCN(c2ncnc3ccc(-c4cnc(OC)c(NS(=O)(=O)c5c(F)cccc5F)c4)cc23)[C@@H](C)C1 [Example 45]
7.41

Determine from records and report pIC50 for CCOc1ncc(-c2ccc3ncnc(N4CCN(C(=O)/C=C/C(C)=O)CC4)c3c2)cc1NS(=O)(=O)c1ccc(F)cc1F [Example 109]
7.31

Check the records and state pIC50 for C=C(OC)C(=O)N1CCN(c2ncnc3ccc(-c4cnc(OC)c(NS(=O)(=O)c5ccc(F)cc5F)c4)cc23)CC1 [Example 66]
7.83

Specify measured pIC50 for C=CC(=O)N1CC2(CCN(c3ncnc4ccc(-c5cnc(OC)c(NS(=O)(=O)c6c(F)cccc6F)c5)cc34)CC2)C1 [Example 50] .
7.94

Specify reported pIC50 for the molecule shown: C=C(F)C(=O)N1CC(N2CCN(c3ncnc4ccc(-c5cnc(OC)c(NS(=O)(=O)c6ccc(F)cc6F)c5)cc34)CC2)C1 [Example 57]
7.48

Quick one: give measured pIC50 for C=C(F)C(=O)N1CCN(c2ncnc3ccc(-c4cnc(OC)c(NS(=O)(=O)c5ccc(F)cc5F)c4)cc23)C[C@@H]1CC#N [Example 113]
7.94

Given the molecule CC(=O)/C=C/C(=O)N1CCN(c2ncnc3ccc(-c4cnc(Cl)c(NS(=O)(=O)c5c(F)cccc5F)c4)cc23)CC1 [Example 84] , write its reported pIC50.
8.12

Check the records and state pIC50 for COc1ncc(-c2ccc3ncnc(N4CCN(C(=O)/C=C/C(C)=O)CC4)c3c2)cc1NS(=O)(=O)c1ccccc1F [Example 91]
7.21

Hello, please tell me recorded pIC50 for this one: COc1ncc(-c2ccc3ncnc(N4CCN(C(=O)/C=C/C(C)=O)CC4)c3c2)cc1NS(=O)(=O)c1cccc(F)c1F [Example 90]
7.63

Indicate its recorded pIC50; the molecule in question is COc1ncc(-c2ccc3ncnc(N4CCN(C(=O)/C=C/C(C)=O)CC4)c3c2)cc1NS(=O)(=O)c1cc(F)ccc1F [Example 94]
7.25

Please look at this molecule and report its pIC50: CC(=O)/C=C/C(=O)N1CCN(c2ncnc3ccc(-c4cnc(Cl)c(NS(=O)(=O)c5c(F)cccc5F)c4)cc23)[C@@H](C)C1 [Example 88]
7.93

Where do the numbers come from? From patent US20250145589A1.
